Hey, just so you know, these numbers are from patent US20250214951A1.

Tested on: LC3-II
Assay: LC3-II production capacity at 10 μM (Table 4)
Assay type: cell-based
Conditions: Homo sapiens, 12 h
Record form. Attribute: fold induction at 10 µM. Fill in for each entry.
Answers are plain numbers.

As a guide, the following entries are already answered.
C=CCc1ccc(-c2cc(CO)on2)c(OC)c1 [Example 44] :: 3.8
COc1ccc(Br)cc1-c1cc(CN2CCNCC2)on1 [Example 28] :: 4.6
CCCc1cc(-c2cc(CN3CCN(C)CC3)on2)c(OC)cc1F [Example 59] :: 3.1
CCCc1ccc(OC(F)(F)F)c(-c2cc(CN3CCN(C)CC3)on2)c1 [Example 60] :: 3.1
C=CCc1ccc(OC)c(-c2cc(COc3ncnc4ccccc34)on2)c1 [Example 65] :: 1.8
COc1ccc(C(F)(F)F)cc1-c1cc(CCO)on1 [Example 33] :: 1.5
CCCc1ccc(OC)c(-c2cc(CN3CCN(C)CC3)on2)c1 [Example 42] :: 2.3

For the next question, use this compound.
Given item CCCc1ccc(OC)c(-c2cc(CN3CCC(OC)CC3)on2)c1 [Example 54] , the value recorded as its fold induction at 10 µM is 2.8
